Non-standard residues stand in square brackets, D forms with d. Residues, ends and D or L forms follow the SMILES beside them. Dmt = Cc1cc(O)cc(C)c1C[C@H](N)C(=O)O; Tic = O=C(O)[C@@H]1Cc2ccccc2CN1; βAla = NCCC(=O)O; Sar = CNCC(=O)O
observation-type: Ki

Provide value of Ki for this record tested with mKOR-1 (Mus musculus, UniProt P33534): N[C@@H](Cc1ccc(O)cc1)C(=O)N1Cc2ccccc2C[C@H]1C(=O)N[C@@H](Cc1ccccc1)C(=O)N[C@@H](Cc1ccccc1)C(=O)O [TIPP, Tyr-Tic-Phe-Phe-OH] (H-Y[Tic]FF-OH)
> 500 nM

Provide value of Ki for this record tested with mKOR-1 (Mus musculus, UniProt P33534): CC[C@H](C)[C@H](NC(=O)[C@H](Cc1ccccc1)NC(=O)[C@H](Cc1ccccc1)NC(=O)[C@@H](C)NC(=O)[C@@H](N)Cc1c(C)cc(O)cc1C)C(N)=O [DAPPI, Dmt-D-Ala-Phe-Phe-Ile-NH2] (H-[Dmt][dA]FFI-NH2)
7 nM

Provide value of Ki for this record tested with mKOR-1 (Mus musculus, UniProt P33534): C[C@@H](NC(=O)[C@@H](N)Cc1ccc(O)cc1)C(=O)N[C@@H](Cc1ccccc1)C(=O)N(C)CC(N)=O [TAPS, Tyr-D-Ala-Phe-Sar-NH2] (H-Y[dA]F[Sar]-NH2)
> 500 nM

Provide value of Ki for this record tested with mKOR-1 (Mus musculus, UniProt P33534): C[C@@H](NC(=O)[C@@H](N)Cc1ccc(O)cc1)C(=O)N[C@@H](Cc1ccccc1)C(=O)N[C@@H](Cc1ccccc1)C(N)=O [TAPP, Tyr-D-Ala-Phe-Phe-NH2] (H-Y[dA]FF-NH2)
> 500 nM

Provide value of Ki for this record tested with mKOR-1 (Mus musculus, UniProt P33534): C[C@@H](NC(=O)[C@@H](N)Cc1ccc(O)cc1)C(=O)N[C@@H](Cc1ccccc1)C(=O)NCCC(N)=O [TAPA, Tyr-D-Ala-Phe-βAla-NH2] (H-Y[dA]F[βAla]-NH2)
> 500 nM

====

Please respond with reported Ki for every item in the list.
# measurement-target: 6TM/E11 (Mus musculus, UniProt P42866)
# assay-remarks: Competition binding versus 125I-IBNtxA at the 6TM-containing
Non-standard residues stand in square brackets, D forms with d. Residues, ends and D or L forms follow the SMILES beside them. Sar = CNCC(=O)O
Write it as a number; the unit nM goes unstated.

Name the recorded Ki for C[C@@H](NC(=O)[C@@H](N)Cc1ccc(O)cc1)C(=O)N[C@@H](Cc1ccccc1)C(=O)N(C)CC(N)=O [TAPS, Tyr-D-Ala-Phe-Sar-NH2] (H-Y[dA]F[Sar]-NH2) .
50

Name the recorded Ki for C[C@@H](NC(=O)[C@@H](N)Cc1ccc(O)cc1)C(=O)N[C@@H](Cc1ccccc1)C(=O)N[C@@H](Cc1ccccc1)C(N)=O [TAPP, Tyr-D-Ala-Phe-Phe-NH2] (H-Y[dA]FF-NH2) .
130

====

# measurement-target: brain membranes (WT, E11 KO, E1/E11 KO)
# assay-remarks: 35S-GTPγS binding in brain membranes
# experimental-conditions: E11 KO
observation-type: EC50 (nM)
Write it as a number; the unit nM goes unstated.

Name the recorded EC50 for C[C@@H](NC(=O)[C@@H](N)Cc1ccc(O)cc1)C(=O)NCC(=O)N(C)[C@@H](Cc1ccccc1)C(=O)NCCO [DAMGO, [D-Ala^2,N-MePhe^4,Gly(ol)^5]-enkephalin] .
220

Name the recorded EC50 for NC(=O)[C@H](Cc1ccccc1)NC(=O)[C@H](Cc1ccccc1)NC(=O)[C@@H]1CCCN1C(=O)[C@@H](N)Cc1ccc(O)cc1 [Endomorphin 2, Tyr-Pro-Phe-Phe-NH2] .
103

Name the recorded EC50 for NC(=O)[C@H](Cc1ccccc1)NC(=O)[C@H](Cc1c[nH]c2ccccc12)NC(=O)[C@@H]1CCCN1C(=O)[C@@H](N)Cc1ccc(O)cc1 [Endomorphin 1, Tyr-Pro-Trp-Phe-NH2] .
17
